Where these numbers come from: patent US11298363B2

- system-name: human vasopressin V1a receptor (Homo sapiens)
- Sequence (P37288 whole entry): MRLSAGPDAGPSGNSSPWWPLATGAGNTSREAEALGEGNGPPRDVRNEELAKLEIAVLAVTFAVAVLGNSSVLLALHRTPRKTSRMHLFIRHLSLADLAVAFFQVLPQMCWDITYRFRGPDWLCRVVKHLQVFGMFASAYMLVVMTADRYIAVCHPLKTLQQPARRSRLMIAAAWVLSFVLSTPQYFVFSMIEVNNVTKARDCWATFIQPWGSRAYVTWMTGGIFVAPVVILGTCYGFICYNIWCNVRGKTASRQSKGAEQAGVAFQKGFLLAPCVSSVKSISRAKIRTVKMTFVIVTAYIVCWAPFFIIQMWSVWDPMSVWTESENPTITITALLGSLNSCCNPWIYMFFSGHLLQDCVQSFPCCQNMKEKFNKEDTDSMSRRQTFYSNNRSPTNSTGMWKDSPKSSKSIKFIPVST
- test-summary: Functional assay on human vasopressin V1a receptor expressing cell line (intracellular Ca2+ fluorescence)
- Type: cell-based
- settings: 1321N1 cells, (Arg8)-vasopressin at EC80; read-out: IC50 (nM) on hV1a cell line
- Procedure: Functional Assay to Test Compounds on Human Vasopressin V1a Receptor Expressing Cell Line The ordinary secondary messenger pathway of the measured GPCR receptor was used, the endogenous Gq-associated system. Using 30,000 cells/plate, compounds were measured on 96-well plates. […] The materials to be measured were administered in 15 to 20 minutes pretreatment, at least two parallels of each compound in each concentration was measured. […] The total AVP concentration-response curve was recorded on each plate. […]
Classes by IC50: LOW (below 4 nM), MID (4 nM to below 20 nM), HIGH (20 nM or more)

[[record]]
molecule = "FC1(F)CCC(NC2Cc3cc(Cl)ccc3-n3c(nnc3[C@H]3CC[C@H](Oc4ccccn4)CC3)C2)CC1 (some centres unmarked)"
assigned_class = "MID"

[[record]]
molecule = "CC(C)[C@@H](N)C(=O)N[C@@H]1Cc2cc(Cl)ccc2-n2c(nnc2[C@H]2CC[C@H](Oc3ccccn3)CC2)C1"
assigned_class = "MID"

[[record]]
molecule = "COC1Cc2cc(Cl)ccc2-n2c(nnc2[C@H]2CC[C@H](C(=O)N3CCN(C)CC3)CC2)C1 (some centres unmarked)"
assigned_class = "HIGH"

[[record]]
molecule = "CCN(CC)[C@H]1Cc2cc(Cl)ccc2-n2c(nnc2[C@H]2CC[C@H](Oc3ccccn3)CC2)C1"
assigned_class = "MID"

[[record]]
molecule = "Clc1ccc2c(c1)C[C@H](N1CCCC1)Cc1nnc([C@H]3CC[C@H](Oc4ccccn4)CC3)n1-2"
assigned_class = "MID"

[[record]]
molecule = "Clc1ccc2c(c1)CC1(Cc3nnc(C4CCN(Cc5cccnc5)C4)n3-2)OCCO1 (centres unmarked)"
assigned_class = "MID"

[[record]]
molecule = "CC(C)(O)C(=O)N[C@@H]1Cc2cc(Cl)ccc2-n2c(nnc2[C@H]2CC[C@H](Oc3ccccn3)CC2)C1"
assigned_class = "LOW"

[[record]]
molecule = "CN(C)CCOC1Cc2cc(Cl)ccc2-n2c(nnc2[C@H]2CC[C@H](Oc3ccccn3)CC2)C1 (some centres unmarked)"
assigned_class = "HIGH"


For the record "O=C1Cc2cc(Br)ccc2-n2c(nnc2[C@H]2CC[C@H](Oc3ccccn3)CC2)C1" , report the class its IC50 corresponds to.
LOW

For the record "O=C([C@H]1CC[C@H](c2nnc3n2-c2ccc(Br)cc2CC2(C3)OCCO2)CC1)N1CCCCC1" , report the class its IC50 corresponds to.
LOW

For the record "O=C1Cc2ccccc2-n2c(nnc2[C@H]2CC[C@H](Oc3ccccn3)CC2)C1" , report the class its IC50 corresponds to.
HIGH

For the record "CN[C@@H]1Cc2cc(Cl)ccc2-n2c(nnc2[C@H]2CC[C@H](Oc3ccccn3)CC2)C1" , report the class its IC50 corresponds to.
LOW

For the record CC(C)(C)OC(=O)NC1Cc2cc(Cl)ccc2-n2c(nnc2[C@H]2CC[C@H](N3CCOCC3)CC2)C1 (some centres unmarked) , report the class its IC50 corresponds to.
HIGH

For the record "Clc1ccc2c(c1)CC1(Cc3nnc([C@@H]4CCN(Cc5cccnc5)C4)n3-2)OCCO1" , report the class its IC50 corresponds to.
HIGH
